# credit: patent US20260022097A1

Kindly supply the reported IC50 values for the records listed here.
molecular target: delta-opioid receptor (DOR) (Homo sapiens, UniProt P41143); assay: inhibition of forskolin-induced cAMP accumulation assay, DOR antagonist mode versus SNC80; format: cell-based; conditions: read-out: DOR Antagonist IC50+/-SEM
Sequence (P41143 whole entry): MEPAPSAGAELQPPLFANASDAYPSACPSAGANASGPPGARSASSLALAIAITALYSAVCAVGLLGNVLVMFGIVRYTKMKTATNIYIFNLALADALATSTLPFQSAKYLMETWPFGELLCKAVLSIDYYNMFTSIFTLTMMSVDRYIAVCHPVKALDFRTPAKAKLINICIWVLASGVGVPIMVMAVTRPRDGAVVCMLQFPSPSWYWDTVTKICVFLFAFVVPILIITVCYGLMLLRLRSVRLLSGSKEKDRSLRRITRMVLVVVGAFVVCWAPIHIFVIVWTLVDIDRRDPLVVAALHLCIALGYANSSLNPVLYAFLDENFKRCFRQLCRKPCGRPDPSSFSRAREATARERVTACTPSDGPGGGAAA
Answers are plain numbers, in nM.

# compound, endpoint, experimentalValue
data = [
    ("CC=C[C@@H]1[C@H]2CCC[C@]1(c1cccc(O)c1)CCN2CCc1ccccc1 (stereo in doubt) [Compound 23]", "IC50", 9.69),
]

Shift focus to the following entry.
Input: Look up IC50: C=C[C@H]1[C@@H]2CCC[C@@]1(c1cccc(O)c1)CCN2CCc1ccccc1 [Compound 19]
Output: 144

----------
target: MOR (Homo sapiens)
endpoint: Ki (pM)
Answers are plain numbers, in pM.

Input: Request: Ki, test system MOR (Homo sapiens), entry C=C[C@H]1[C@H]2CCC[C@]1(c1cccc(O)c1)CCN2CCc1ccccc1
Output: 500

----------
target: mu-opioid receptor (MOR) (Homo sapiens); test: cell-based; conditions: read-out: MOR Agonist EC50+/-SEM
Sequence (P35372 whole entry): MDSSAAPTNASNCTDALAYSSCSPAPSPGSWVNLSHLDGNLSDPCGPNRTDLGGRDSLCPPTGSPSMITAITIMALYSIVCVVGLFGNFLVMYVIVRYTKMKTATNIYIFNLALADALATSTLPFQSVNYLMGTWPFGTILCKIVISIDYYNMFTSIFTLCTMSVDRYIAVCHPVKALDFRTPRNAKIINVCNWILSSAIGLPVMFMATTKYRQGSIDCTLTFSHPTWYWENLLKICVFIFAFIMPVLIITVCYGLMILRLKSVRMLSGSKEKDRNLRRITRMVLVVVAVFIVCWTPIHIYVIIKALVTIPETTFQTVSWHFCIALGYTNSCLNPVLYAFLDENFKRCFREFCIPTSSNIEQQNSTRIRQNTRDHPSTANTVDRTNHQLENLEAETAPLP
endpoint: EC50 (nM)
Answers are plain numbers, in nM.

# molecule, experimentalValue
data = [
    ("C=C[C@H]1[C@H]2CCC[C@]1(c1cccc(O)c1)CCN2CCc1ccccc1 [Compound 13]", 1.44),
]

Record EC50 for all entries; do not skip any.
1. CC=C[C@H]1[C@H]2CCC[C@]1(c1cccc(O)c1)CCN2CCc1ccccc1 (stereo in doubt) [Compound 22]
2. CCC=C[C@@H]1[C@H]2CCC[C@]1(c1cccc(O)c1)CCN2CCc1ccccc1 (stereo in doubt) [Compound 30]
3. C=C[C@@H]1[C@@H]2CCC[C@@]1(c1cccc(O)c1)CCN2CCc1ccccc1 [Compound 18]
4. CC=C[C@@H]1C2CCC[C@@]1(c1cccc(O)c1)CCN2CCc1ccccc1 (stereo in doubt) [Compound 27]
5. CCC=C[C@H]1[C@H]2CCC[C@]1(c1cccc(O)c1)CCN2CCc1ccccc1 (stereo in doubt) [Compound 29]
6. CC=C[C@@H]1[C@H]2CCC[C@]1(c1cccc(O)c1)CCN2CCc1ccccc1 (stereo in doubt) [Compound 23]

Output:
1: 2.61; 2: 14.8; 3: 3.94; 4: 4.66; 5: 11.6; 6: 0.07

Input: Look up EC50: C=C[C@@H]1[C@H]2CCC[C@]1(c1cccc(O)c1)CCN2CCc1ccccc1 [Compound 14]
Output: 2.12

----------
target: delta-opioid receptor (DOR) (Homo sapiens, UniProt P41143); assay: inhibition of forskolin-induced cAMP accumulation assay, DOR antagonist mode versus SNC80; assay type: cell-based; conditions: versus EC50 of SNC80; read-out: DOR Antagonist IC50+/-SEM
endpoint: IC50
Note: state the figure and append the unit.

# compound, target, IC50
data = [
    ("CC=C[C@H]1[C@H]2CCC[C@]1(c1cccc(O)c1)CCN2CCc1ccccc1 (stereo in doubt) [Compound 22]", "delta-opioid receptor (DOR) (Homo sapiens, UniProt P41143)", "113 nM"),
    ("CCC=C[C@H]1[C@H]2CCC[C@]1(c1cccc(O)c1)CCN2CCc1ccccc1 (stereo in doubt) [Compound 29]", "delta-opioid receptor (DOR) (Homo sapiens, UniProt P41143)", "69 nM"),
]

Input: Look up IC50: CCC=C[C@@H]1[C@@H]2CCC[C@@]1(c1cccc(O)c1)CCN2CCc1ccccc1 (stereo in doubt) [Compound 33]
Output: 520 nM
